# reported TGI; entries follow
Test system: LOX IMVI melanoma
Experiment: NCI tumour cell line growth inhibition, 48 h

Example cases with answers are listed next.
{"compound": "CC1(C)C(=O)C2(OS(=O)(=O)C(F)(F)F)CCC1C2 (centres undefined)", "systemTested": "LOX IMVI melanoma", "TGI": "> 100 µM"}
{"compound": "Nn1c(SCC(=O)NCc2ccccc2)nc2ccccc2c1=O", "systemTested": "LOX IMVI melanoma", "TGI": "> 100 µM"}
{"compound": "COc1cccc2c1C(=O)c1c(O)c3c(c(O)c1C2=O)C[C@@](O)(/C(C)=N/NC(=O)c1ccccc1)C[C@@H]3OC1CC(N)C(O)C(C)O1 (some centres undefined)", "systemTested": "LOX IMVI melanoma", "TGI": "0.709 µM"}
{"compound": "Cc1ccc(/C=N/NC2=NCCN2)s1", "systemTested": "LOX IMVI melanoma", "TGI": "> 100 µM"}
{"compound": "CC1=C2C(=O)C(C)(C)C=C2C(=O)[C@](C)(O)C12CC2", "systemTested": "LOX IMVI melanoma", "TGI": "> 1 µM"}

Then this compound:
Exam item: Recorded TGI of `CC(=O)Nc1ccc2oc(=O)c3ccccc3c2c1` , please.
Marked response: > 100 µM

These data points were gathered from PubChem BioAssay (NCI).
